- measurement.notes: Cytotoxicity against mouse C2C12 cells incubated for 48 to 72 hrs by MTS assay
- Assay type: toxicity, cell-based
pIC50: −log10 of the molar value.
readout.label: pIC50

Query: pIC50; subject: CO[C@H]1/C=C/C=C/C=C/C[C@H](OC(=O)[C@@H](C)NC(=O)C2CCCCC2)[C@H](C)[C@@H](O)/C(C)=C\CCc2cc(O)cc(c2)NC(=O)C1
< 5.00

###

- Tested on: PANC-1
- measurement.notes: Antitumor activity against human PANC-1
- Type: functional, cell-based
- condition.parameters: pooled result: one value given for 3 cell lines, strains, targets or settings
Readings of pIC50 for the listed molecules
Scale: negative log10 of molar concentration, which is what pIC50 denotes.

line.notation | pIC50
CO[C@H]1/C=C/C=C/C=C/C[C@H](OC(=O)[C@@H](C)NC(=O)C2CCCCC2)[C@H](C)[C@@H](O)/C(C)=C\CCc2cc(O)cc(c2)NC(=O)C1 | 8.10
CC[C@H](C)C(=O)N[C@H](C)C(=O)O[C@H]1C/C=C/C=C/C=C/[C@H](OC)CC(=O)Nc2cc(O)cc(c2)CC/C=C(/C)[C@H](O)[C@H]1C | 6.47
CO[C@H]1/C=C/C=C/C=C/C[C@H](OC(=O)[C@@H](C)NC(=O)C2=CCCCC2)[C@H](C)[C@@H](O)/C(C)=C\CCc2cc(O)cc(c2)NC(=O)C1 | 7.46
CO[C@H]1/C=C/C=C/C=C/C[C@H](OC(=O)[C@@H](C)NC(=O)CCC(C)C)[C@H](C)[C@@H](O)/C(C)=C\CCc2cc(O)cc(c2)NC(=O)C1 | 6.77

We next turn to a different molecule, shown below.
Query: pIC50; subject: CO[C@H]1/C=C/C=C/C=C/C[C@H](OC(=O)[C@@H](C)NC(=O)CC(C)C)[C@H](C)[C@@H](O)/C(C)=C\CCc2cc(O)cc(c2)NC(=O)C1
6.77
